B1: Azoarcus group I ribozyme (parent)
chain: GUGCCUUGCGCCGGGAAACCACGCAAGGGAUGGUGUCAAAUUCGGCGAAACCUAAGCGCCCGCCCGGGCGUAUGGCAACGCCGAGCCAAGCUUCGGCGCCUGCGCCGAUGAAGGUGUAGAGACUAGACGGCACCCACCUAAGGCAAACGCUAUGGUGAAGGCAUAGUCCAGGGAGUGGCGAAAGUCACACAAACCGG

Variants of: B1
Test: reverse-splicing fitness (ratio to wild type); higher = more active; in vitro selection; Mg2+ level not given
Please note: Y applies when reverse-splicing fitness is 0.009 or greater, and N applies otherwise.

Variant label | Category
C82G A111U A120U A145G C150G C169G U176A | Y
A145C C150U | Y
C82A A111U A120G C169A U176C | Y
C82G A111C A120G A145U C150G C169U U176C | Y
C82G A111U A120G A145G C150A C169A U176G | N
C82U A111U A120C A145U C150A C169U U176G | N
C82G A111C A120U C150U U176G | N
C82U A120U A145C C150A C169U U176A | N
A111G A120U C150G C169U U176C | N
C82U A111G A145C C150A C169U U176C | N
C82G A111U A120G A145C C150U C169U | N
A111C A120U A145C C150A U176C | Y
C82G A120C A145G C150A U176C | Y
A111U A120G A145U C150U C169A U176A | Y
C82G A111C A145U C150U U176C | Y
C82G A120C A145U C150A C169G | N
C82A A111G A120C A145C U176G | N
C82U A111C A120G A145G C150U C169A U176A | Y
A111C A120G A145C C150G | Y
C82G A111G A120G A145U C150U C169A U176G | N
C82G A120G A145U C169A U176G | N
C82A A120C A145U U176C | Y
A111U A120U C150U C169U | Y
C82U A111U A145C C169U U176G | N
A111C A120C C150U C169G U176G | N
C82U A120U A145C C150G C169A U176G | N
C82A A111G A120G A145U C150G C169A U176G | N
C82U A111G C150A U176G | Y
A111G A120C A145C C150U C169A U176G | N
C82A A111G A120G C169A | Y
C82A A111U A120C A145G C150U U176A | Y
C82A A111G A120C A145C C150G U176C | N
C82U A111G A120U A145C C150G U176G | N
A111G C150G U176A | Y
C82A A111C A145G C150A U176A | Y
A111G A120C A145G C150A C169A U176C | Y
C82U A111U A120U A145C U176G | N
C82G A145G C169U U176G | N
A111G A120C A145G C150A C169G U176C | Y
C82A A120G C150G C169U U176G | N
A111C A120G A145G C169G U176G | N
C82A A111G A145U C150A U176C | Y
C82U A111C A145C C150U U176G | Y
C82A A111C A120G C150G U176A | N
C82G A120G C169U U176G | N
A145C C150G U176A | Y
A120C C150U | Y
C82A A111U A120G A145G C150A C169U U176A | Y
C82G A111U A120G C150U U176C | Y
C82U A111C A120U A145C C150A C169U U176G | N
C82U A111C A120U A145G U176C | Y
C82G A120C A145G C150A C169A U176G | N
C82A A111G A120U A145U C150U C169G U176A | N
C169A | Y
A111U A120G A145G C150G | Y
A111G A120C A145C C169G U176A | Y
A120C A145U U176A | Y
A111C A120G C150G C169G U176A | N
A120G C150U U176G | Y
C82U A111C A120U A145C C150U | N
C82G A111G A120C A145C C150U C169U U176C | Y
C82U A145U C169U U176G | N
C82G A111G A145U U176A | Y
C82U A111C A120G C150A C169G | N
C82A A111G A120G A145U C169G U176A | Y
A111C A145G | Y
C82U A111C A145G C150U | Y
A111C A120G A145U C150U C169A U176A | Y
C82U A111U A120C A145G C169A U176A | Y
C82U A120C A145G C169A | N
C82G A111U A120C A145U C150U C169U U176G | N
A111U A120U C169G U176A | N
C82A A120U A145G C150G C169A U176G | N
C82U A111U A145G C169G U176A | Y
A120U A145G C150G C169A U176G | N
C82U A111G A120G A145C C150A U176G | N
A111C C150G C169G U176A | N
A111C A120C A145G C150G C169G U176A | Y
C82A A120C C150U C169G U176G | N
